Below: a set of entries, each annotated with reported GI50.
Tested on: RXF 393
assay_method_text: NCI tumour cell line growth inhibition, 48 h
Active and inactive are the calls of the source. Rule as the data show it: active = GI50 up to about 1.1 µM and inactive = higher.

[
  {
    "molecule": "O=c1c2nn[nH]c2nc2n1CC(c1ccccc1)S2 (stereo unspecified)",
    "target_or_system": "RXF 393",
    "GI50": "29 µM (inactive)"
  },
  {
    "molecule": "O=C(C[C@@H]1CCCN2CCCC[C@H]12)N1c2ccccc2Sc2ccc(Cl)cc21",
    "target_or_system": "RXF 393",
    "GI50": "13.6 µM (inactive)"
  },
  {
    "molecule": "O=C(O)c1ccc(/C=N\\N(CCO)C2=NCCN2)cc1",
    "target_or_system": "RXF 393",
    "GI50": "> 100 µM (inactive)"
  },
  {
    "molecule": "CC(C)(C)c1cc(C2=NN(c3ccccc3)C(c3ccccc3)C2)cc(C(C)(C)C)c1O (stereo unspecified)",
    "target_or_system": "RXF 393",
    "GI50": "> 100 µM (inactive)"
  },
  {
    "molecule": "Cc1[nH]c(=O)[nH]c(=O)c1/C=C/C(=O)NC(CO)C[S+]([O-])Cc1ccccc1 (stereo unspecified)",
    "target_or_system": "RXF 393",
    "GI50": "> 300 µM (inactive)"
  }
]

For the next question, use this molecule.
State GI50 on RXF 393. Entry: C=CC1C(OC2OC(CO)C(O)C(O)C2O)OC=C(C(=O)OC)C1CC1CC(=O)CC(CCc2ccc(O)cc2)O1 (stereo unspecified)
> 100 µM (inactive)
